This collection of values is drawn from paper PMC8546901.

I'd be grateful if you could share measured L.E. (ligand efficiency) for these entries.
biological target: UniProt Q9UGC6; experiment: 1H-15N HSQC NMR fragment titration, chemical shift perturbation KD; type: binding; details: calculated from KD and number of heavy atoms
Sequence (Q9UGC6 72-206): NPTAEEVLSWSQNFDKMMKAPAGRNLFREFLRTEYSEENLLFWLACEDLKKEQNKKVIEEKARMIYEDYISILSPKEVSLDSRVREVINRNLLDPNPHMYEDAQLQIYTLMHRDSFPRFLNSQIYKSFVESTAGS
Answer with a number only.

Problem: // lookup L.E. (ligand efficiency) | system=UniProt Q9UGC6 | key= Oc1ccc(Sc2ccc(O)cc2)cc1
Solution: 0.31

Problem: Same again, this time with CSc1cc(-c2ccc(F)cc2)[nH]n1
Solution: 0.23

Problem: Same again, this time with OCCCCCOc1ccc(Cl)cc1
Solution: 0.25

Problem: Same again, this time with OCCCCn1cnc2cc(Cl)c(Cl)cc21
Solution: 0.25
